Test Target: dihydrofolate reductase (DHFR) from rat liver (RL) (Rattus norvegicus, UniProt Q920D2)
Sequence (Q920D2 whole entry): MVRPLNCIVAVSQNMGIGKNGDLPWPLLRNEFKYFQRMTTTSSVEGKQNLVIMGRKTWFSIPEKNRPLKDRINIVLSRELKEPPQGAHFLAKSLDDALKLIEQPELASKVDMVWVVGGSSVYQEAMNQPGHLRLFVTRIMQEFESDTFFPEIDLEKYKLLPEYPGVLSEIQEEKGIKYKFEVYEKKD
Assay Readout: IC50 (µM)

See these solved cases before continuing.
Query: Which value of IC50 has been reported for Nc1nc(N)c(Sc2c(Cl)cccc2Cl)c(=O)[nH]1 in the records?
Response: 17.5

Query: Which value of IC50 has been reported for Nc1nc(N)c(Sc2ccccc2Cl)c(=O)[nH]1 in the records?
Response: 4.7

Query: Which value of IC50 has been reported for Nc1nc(N)c(Sc2ccccn2)c(=O)[nH]1 in the records?
Response: 117

Query: Which value of IC50 has been reported for Nc1nc(N)c(Sc2ccncc2)c(=O)[nH]1 in the records?
Response: 101

Query: Which value of IC50 has been reported for Nc1nc(N)c(SCc2ccc(Cl)cc2Cl)c(=O)[nH]1 in the records?
Response: 7

[1] COc1cccc(Sc2c(N)nc(N)[nH]c2=O)c1
[2] COc1ccccc1Sc1c(N)nc(N)[nH]c1=O
[3] Nc1nc(N)c(Sc2ccc(Cl)cc2Cl)c(=O)[nH]1
[4] Nc1nc(N)c(Sc2ccc3ccccc3c2)c(=O)[nH]1
Query: Endpoint returns the given compounds ordered by ascending IC50. List the labels according to the requested ordering.
Response: 3, 4, 1, 2

###

Test Target: dihydrofolate reductase (DHFR) from Toxoplasmosis gondii (Tx) (Toxoplasma gondii, UniProt Q07422)
Sequence (Q07422 whole entry): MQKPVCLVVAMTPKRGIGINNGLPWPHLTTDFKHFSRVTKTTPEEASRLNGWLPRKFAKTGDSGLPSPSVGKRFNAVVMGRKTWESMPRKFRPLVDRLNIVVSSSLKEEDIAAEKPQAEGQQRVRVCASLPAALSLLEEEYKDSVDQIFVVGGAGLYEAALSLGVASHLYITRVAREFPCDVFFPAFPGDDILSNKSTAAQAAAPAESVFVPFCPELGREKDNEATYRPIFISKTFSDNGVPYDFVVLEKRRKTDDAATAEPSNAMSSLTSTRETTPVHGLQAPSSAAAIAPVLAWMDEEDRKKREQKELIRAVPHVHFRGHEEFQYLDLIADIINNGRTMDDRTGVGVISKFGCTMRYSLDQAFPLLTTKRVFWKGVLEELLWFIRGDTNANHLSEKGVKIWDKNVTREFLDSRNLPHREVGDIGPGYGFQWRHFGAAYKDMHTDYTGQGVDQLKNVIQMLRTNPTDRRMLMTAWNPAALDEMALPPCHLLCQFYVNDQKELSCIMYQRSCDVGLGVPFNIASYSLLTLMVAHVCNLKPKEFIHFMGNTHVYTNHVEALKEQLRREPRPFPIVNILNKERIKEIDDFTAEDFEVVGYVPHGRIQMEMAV
Assay Explanation: Inhibition of dihydrofolate reductase from Toxoplasmosis gondii (Tx DHFR)
Format: biochemical
Conditions Used: IC50 RL DHFR divided by IC50 Tx DHFR
Assay Readout: Selectivity Ratio: RL DHFR/Tx DHFR
Enter the number alone.

See these solved cases before continuing.
Query: Which value of Selectivity Ratio: RL DHFR/Tx DHFR has been reported for Nc1nc(N)c(Sc2ccc(Cl)cc2Cl)c(=O)[nH]1 in the records?
Response: 16.4

Query: Which value of Selectivity Ratio: RL DHFR/Tx DHFR has been reported for Nc1nc(N)c(Sc2cc(Cl)cc(Cl)c2)c(=O)[nH]1 in the records?
Response: 74.8

Query: Which value of Selectivity Ratio: RL DHFR/Tx DHFR has been reported for Nc1nc(N)c(Sc2cccc3ccccc23)c(=O)[nH]1 in the records?
Response: 198.4

Query: Which value of Selectivity Ratio: RL DHFR/Tx DHFR has been reported for COc1cccc(CSc2c(N)nc(N)[nH]c2=O)c1 in the records?
Response: 10.1

Query: Which value of Selectivity Ratio: RL DHFR/Tx DHFR has been reported for Nc1nc(N)c(Sc2ccc(C(=O)O)cc2)c(=O)[nH]1 in the records?
Response: 2.3

***
Query: Which value of Selectivity Ratio: RL DHFR/Tx DHFR has been reported for Nc1nc(N)c(Sc2ccncc2)c(=O)[nH]1 in the records?
Response: 11.9

Query: Which value of Selectivity Ratio: RL DHFR/Tx DHFR has been reported for Nc1nc(N)c(SCc2ccc(Cl)cc2Cl)c(=O)[nH]1 in the records?
Response: 10

Query: Which value of Selectivity Ratio: RL DHFR/Tx DHFR has been reported for Nc1nc(N)c(Sc2ccc3ccccc3c2)c(=O)[nH]1 in the records?
Response: 85.7

Query: Which value of Selectivity Ratio: RL DHFR/Tx DHFR has been reported for Nc1nc(N)c(SCc2ccc(Br)cc2)c(=O)[nH]1 in the records?
Response: 24.6
